Numbers sourced from PubChem BioAssay (NCI).

# System: TK-10 renal
# Method: NCI-60 one-dose screen, 48 h (100 = growth as untreated, 0 = no growth, -100 = all killed)
# Measurement Setup: 10 µM unless noted
About 83,000 compounds went through this panel and 20% of them were active in at least one assay; those are over-represented in the sample as a whole.
Value Kind: growth (%)
Please give a number only; it is taken to be in %.

Which growth value belongs to CCOc1ccc2nc(-c3cccc(OCC(=O)NC(C)C)c3)nc(Nc3ccc(-c4cn[nH]c4)cc3)c2c1 ?
47.4

* * *

# Test system: MCF7 breast
# Method: NCI-60 one-dose screen, 48 h
# Measurement Setup: 10 µM unless noted
About 83,000 compounds went through this panel and 20% of them were active in at least one assay; those are over-represented in the sample as a whole. Activity calls are given as the source filed them. How the source made its calls: active means growth percent below 10; inactive means the rest.
Bench note: report the call from active, inactive

Molecule	Discrete Label
O=C1CSC(c2ccccc2Cl)N1c1nnc(Cn2cnnc2)o1 (centres undefined)	active
COc1ccc(/C(C)=C(\c2ccc(Cl)cc2)c2ccc(OCCCN(C)C)cc2)cc1F	inactive
CC(=O)Nc1ccc(C(=O)/C=C/c2ccccc2)cc1	inactive
Cc1nc2ccccc2c(/C=C/c2ccc(Cl)cc2)c1C(=O)/C=C/c1ccc(Cl)cc1	active
CO[C@H]1/C=C/O[C@@]2(C)Oc3c(C)c(O)c4c(c3C2=O)C(=O)C(/C=N/N(c2ccccc2)c2ccccc2)=C(NC(=O)/C(C)=C\C=C\[C@H](C)[C@H](O)[C@@H](C)[C@@H](O)[C@@H](C)[C@H](OC(C)=O)[C@@H]1C)C4=O	active

Answer briefly: the call reported for CC(/C=N/NC(=O)c1cc(-c2ccco2)[nH]n1)=C\c1ccccc1 in this assay.
inactive

What about Cc1c2c(cn1Cc1ccccc1)CCc1cn(C)nc1-2 ?
inactive

What about CC(=O)NCC(=O)Nc1ccc(-c2nnc3ccccn23)nc1.CC(=O)NCC(=O)Nc1ccc(-c2nnc3ccccn23)nc1.[Pt+2] ?
inactive

What about CSc1nc2sc3cc(Cl)ccc3n2c(=N)c1C#N ?
inactive

* * *

# System: U251 CNS
# Method: NCI-60 one-dose screen, 48 h
# Measurement Setup: 10 µM unless noted
Compounds without any hit were thinned out: in the full panel of roughly 83,000, 20% have a hit. Calls of active or inactive are those of the source. How the source made its calls: active means growth percent below 10; inactive means the rest.
Bench note: report the call from TRUE (active), FALSE (inactive)

Consider the following illustrative entries.
Compound	Discrete Label
NC(=O)CC1(O)C=C(Br)C(=O)C(Br)=C1	FALSE
O=C(NCCN1CCC(O)CC1)c1cc2c(o1)C(=O)c1ccccc1C2=O	TRUE
C=C1C(=O)O[C@H]2[C@H]1CC/C(Cn1cc(CNCCc3c[nH]c4ccc(Cl)cc34)nn1)=C\CC[C@@]1(C)O[C@@H]21	FALSE
N#C/C(=C\c1ccc(Br)cc1)n1nnc2cc(Cl)c(Cl)cc21	FALSE
CC(=[N-])N1CCC[C@@H](Nc2c3ccccc3nc3ccccc23)C1.[Cl][Pt].[NH-]CCC[NH-]	FALSE
COc1cc(C2CC(c3ccc(Nc4nc(Nc5ccc(F)cc5)nc(Nc5ccc(Cl)cc5)n4)cc3)=NN2C(C)=O)cc(OC)c1OC (stereo not drawn)	FALSE
COC(=O)Nc1nc2ccc(C(=O)C3CC3)cc2[nH]1	FALSE
C#C[C@]1(O)CC[C@H]2[C@@H]3CC=C4c5sc(N=C(N)N)nc5CC[C@]4(C)[C@H]3CC[C@@]21C	TRUE

Now examine the next entry.
Answer briefly: the call reported for CCOc1ccc(-c2nc3ccc(-c4nc5ccc(N6CCN(C)CC6)cc5[nH]4)cc3[nH]2)cc1OCC in this assay.
TRUE
